assaySystem: delta opioid receptor (Mus musculus)
Construct: NG108-15 cell membranes were purchased from Applied Cell Sciences (Rockville, Md.); host or cells: NG108-15 cell membranes
assayText: [35S]GTPγS binding assay in NG108-15 cell membranes (delta opioid functional assay), 200 nM screen
Type: biochemical
conditionSummary: 200 nM test compound; relative to calculated max of SNC80 dose response curve; NG108-15 cell membranes; averages if tested more than once
Checkbox rule: GTPγS δ-RelEfficacy @200 nM lower than 0.4 = 1; GTPγS δ-RelEfficacy @200 nM not lower than 0.4 = -1.

# TODO verify GTPγS δ-RelEfficacy @200 nM < 0.4 strictly for this compound: COCCOc1ccc(Oc2nc(-c3cncc(SC)c3)ncc2NC[C@@H]2CCCN2)cc1 [Cpd 241] 1

Given the entry COc1ccc(Oc2nc(-c3cncc(C#N)c3)ncc2N2CC(CN)C2)cc1 [Cpd 331] , would its reported GTPγS δ-RelEfficacy @200 nM be below 0.4? -1

Answer whether the compound COc1ccc(Oc2nc(-c3cncc(C#N)c3)ncc2NC[C@@H]2CCCN2)cc1C [Cpd 204] has GTPγS δ-RelEfficacy @200 nM strictly less than 0.4 -1

Does this compound meet the criterion GTPγS δ-RelEfficacy @200 nM < 0.4? O=C(c1cccc(Oc2nc(-c3cncc(F)c3)ncc2NC[C@@H]2CCCN2)c1)N1CCCC1 [Cpd 171] 1

Hello, I'm reviewing records and need to know if GTPγS δ-RelEfficacy @200 nM of N#Cc1cncc(-c2ncc(NC[C@@H]3CCCN3)c(Oc3ccccc3Cl)n2)c1 [Cpd 230] is below 0.4. Could you check? -1

GTPγS δ-RelEfficacy @200 nM under 0.4? Item: COc1cncc(-c2ncc(NC[C@@H]3CCCN3)c(Oc3cccc(OC(C)=O)c3)n2)c1 [Cpd 250] -1

GTPγS δ-RelEfficacy @200 nM strictly < 0.4 for this compound? O=C(c1ccc(Oc2nc(-c3cncc(F)c3)ncc2NC[C@@H]2CCCN2)cc1)N1CCCC1 [Cpd 176] 1

Please determine if Clc1ccc(Oc2nc(-c3cncnc3)ncc2NC[C@@H]2CCCN2)cc1 [Cpd 130] is below 0.4 in terms of GTPγS δ-RelEfficacy @200 nM. 1

# strict comparison: is reported GTPγS δ-RelEfficacy @200 nM < 0.4? input = COc1ccc(Oc2nc(-c3cccnc3)ncc2N2CCCNCC2)cc1 [Cpd 336] -1

###

assaySystem: delta opioid receptor (Mus musculus, UniProt P32300)
Construct: NG108-15 cell membranes were purchased from Applied Cell Sciences (Rockville, Md.); host or cells: NG108-15 cell membranes
Sequence (P32300 whole entry): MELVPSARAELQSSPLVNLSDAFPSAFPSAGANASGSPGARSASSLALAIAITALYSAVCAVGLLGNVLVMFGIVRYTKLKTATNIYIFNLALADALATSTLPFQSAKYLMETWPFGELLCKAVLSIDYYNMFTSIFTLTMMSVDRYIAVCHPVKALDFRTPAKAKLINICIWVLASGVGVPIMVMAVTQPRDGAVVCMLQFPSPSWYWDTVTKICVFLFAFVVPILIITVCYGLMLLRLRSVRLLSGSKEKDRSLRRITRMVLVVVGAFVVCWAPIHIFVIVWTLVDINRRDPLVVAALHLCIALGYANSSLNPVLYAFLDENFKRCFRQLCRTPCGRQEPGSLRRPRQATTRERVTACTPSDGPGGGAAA
assayText: [35S]GTPγS binding assay in NG108-15 cell membranes (delta opioid functional assay), 200 nM screen
Assay type: biochemical
conditionSummary: NG108-15 cell membranes; averages if tested more than once; read-out: GTPγS δ-opioid receptor EC50
measuredMetric: log10 of EC50 (log10 of the value in nM)
Each number you see is log10 of EC50, and the unit inside the log is nM.

For COc1ccc(Oc2nc(-c3cncc(OC)c3)ncc2NC2CCCC(N)C2)cc1 (mixture of isomers) , what is its reported log10 of EC50? 1.54

Report log10 of EC50 for `CCCOc1ccc(Oc2nc(-c3cncnc3)ncc2NC[C@@H]2CCCN2)cc1` please. 2.49

Give the measured log10 of EC50 of `COc1ccc(Oc2nc(-c3cncc(C#N)c3)ncc2NC[C@@H]2CCCN2)c(F)c1F` . 2.01

Value lookup for log10 of EC50; key = `COc1ccc(Oc2nc(-c3cncc(C#N)c3)ncc2N2CC(CN)C2)cc1` 2.03

Entry `CCc1ccc(Oc2nc(-c3cncc(C#N)c3)ncc2NC[C@@H]2CCCN2)cc1` has what log10 of EC50? 2.08

Which log10 of EC50 is reported for this compound? `Cc1cc(Oc2nc(-c3cncc(C#N)c3)ncc2NC[C@@H]2CCCN2)ccc1F` 2.55

Endpoint output: log10 of EC50 of `OCc1ccc(Oc2nc(-c3cccnc3)ncc2NC[C@@H]2CCCN2)cc1` . Value? 3.60

Data request, read-out log10 of EC50, for `FC(F)Oc1ccc(Oc2nc(-c3cncnc3)ncc2NC[C@@H]2CCCN2)cc1` 2.69

###

assaySystem: hMOR (mu opioid receptor) (Homo sapiens, UniProt P35372)
Sequence (P35372 whole entry, looked up): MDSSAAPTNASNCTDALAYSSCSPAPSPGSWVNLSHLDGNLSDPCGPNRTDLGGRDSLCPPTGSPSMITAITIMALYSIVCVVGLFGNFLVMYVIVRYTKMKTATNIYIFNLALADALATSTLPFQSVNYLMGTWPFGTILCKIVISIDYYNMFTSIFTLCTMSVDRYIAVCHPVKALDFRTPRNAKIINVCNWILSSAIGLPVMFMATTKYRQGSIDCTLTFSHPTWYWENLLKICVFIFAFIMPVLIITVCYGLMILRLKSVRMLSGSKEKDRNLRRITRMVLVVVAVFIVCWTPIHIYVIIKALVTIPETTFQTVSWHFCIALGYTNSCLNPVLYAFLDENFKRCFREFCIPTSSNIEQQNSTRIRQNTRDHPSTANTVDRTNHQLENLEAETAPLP
assayText: [35S]GTPγS binding assays in CHO-hMOR cell membranes (mu opioid functional assay)
Assay type: biochemical
conditionSummary: read-out: GTPγS μ-opioid receptor % Inh @10 μM
measuredMetric: inhibition at 10 µM (%)
Respond numerically; units are % and should not be typed.

Find the measured inhibition at 10 µM: item `COc1ccc(Oc2nc(-c3cncc(OC)c3)ncc2N[C@H]2CCCNC2)cc1` , target or system hMOR (mu opioid receptor) (Homo sapiens, UniProt P35372). 4.26

What value of inhibition at 10 µM on hMOR (mu opioid receptor) (Homo sapiens, UniProt P35372) does `COc1ccc(Oc2nc(-c3cncc(OC)c3)ncc2NC[C@@H]2CCCN2)cc1` have? 11.5

What reported inhibition at 10 µM corresponds to `CCOc1ccc(Oc2nc(-c3cncc(F)c3)ncc2NC[C@@H]2CCCN2)cc1` on hMOR (mu opioid receptor) (Homo sapiens, UniProt P35372)? 17

Item: `COc1ccc(Oc2nc(-c3cccnc3)ncc2N2CCCNCC2)cc1` Test system: hMOR (mu opioid receptor) (Homo sapiens, UniProt P35372) Read-out: inhibition at 10 µM Value: ? 17.1

###

assaySystem: delta opioid receptor (Mus musculus, UniProt P32300)
Construct: NG108-15 cell membranes were purchased from Applied Cell Sciences (Rockville, Md.); host or cells: NG108-15 cell membranes
assayText: [35S]GTPγS binding assay in NG108-15 cell membranes (delta opioid functional assay), 200 nM screen
Format: biochemical
conditionSummary: GTPγS δ-opioid receptor EC50 (μM), NG108-15 cell membranes; averages if tested more than once
measuredMetric: EC50

Any idea what EC50 was measured for COc1ccc(Oc2nc(-c3cncc(C#N)c3)ncc2NC[C@@H]2CCCN2)cc1C [Cpd 204] ? 0.026 µM

Consider the compound shown here: COc1ccc(Oc2nc(-c3cc(C)cnc3Cl)ncc2NC[C@@H]2CCCN2)cc1 [Cpd 268] What is its recorded EC50? 0.081 µM

Using the record for COc1ccc(Oc2nc(-c3cncc(C)c3)ncc2N2CC[C@@H](N)C2)cc1 [Cpd 352] , report its EC50. 0.079 µM

I have this compound here, COc1ccc(Oc2nc(-c3cc(C)cnc3C)ncc2NC[C@@H]2CCCN2)cc1 [Cpd 263] , and I need its recorded EC50. 0.027 µM

Name the recorded EC50 for COc1ccc(Oc2nc(-c3cncc(OC)c3)ncc2N2CC[C@@H](N)C2)cc1 [Cpd 349] . 0.082 µM

###

Can you tell me GTPγS δ-opioid receptor Rel Efficacy for the items I'm about to list?
assaySystem: delta opioid receptor (Mus musculus)
Construct: NG108-15 cell membranes were purchased from Applied Cell Sciences (Rockville, Md.); host or cells: NG108-15 cell membranes
assayText: [35S]GTPγS binding assay in NG108-15 cell membranes (delta opioid functional assay), 200 nM screen
Type: biochemical
conditionSummary: relative efficacy from dose response; NG108-15 cell membranes
Answer with the value's number alone.

Which GTPγS δ-opioid receptor Rel Efficacy is listed for COc1ccc(Oc2nc(-c3cncc(C)c3)ncc2NC[C@@H]2CCCN2)cc1 [Cpd 253] ? 0.997

Can you look up the measured GTPγS δ-opioid receptor Rel Efficacy of Nc1ccc(Oc2nc(-c3cncc(F)c3)ncc2NC[C@@H]2CCCN2)cc1 [Cpd 198] for me? 1.050

Request the reported GTPγS δ-opioid receptor Rel Efficacy associated with COc1ccc(Oc2nc(-c3cccnc3)ncc2NC[C@@H]2CCCN2)cc1C [Cpd 211] 1.050

Look up GTPγS δ-opioid receptor Rel Efficacy: CCc1ccc(Oc2nc(-c3cncc(C#N)c3)ncc2NC[C@@H]2CCCN2)cc1 [Cpd 179] 1.182

Requested read-out: GTPγS δ-opioid receptor Rel Efficacy. Entry: CCOc1ccc(Oc2nc(-c3cncc(C#N)c3)ncc2NC[C@@H]2CCCN2)cc1 [Cpd 104] 0.921

Reported GTPγS δ-opioid receptor Rel Efficacy for COc1ccc(Oc2nc(-c3cccnc3)ncc2N2CCN[C@H](C)C2)cc1 [Cpd 357] : what is it? 0.929

# query: GTPγS δ-opioid receptor Rel Efficacy of entry COc1ccc(Oc2nc(-c3cncc(SC)c3)ncc2N2CCCNCC2)cc1 [Cpd 347] 0.898

Report GTPγS δ-opioid receptor Rel Efficacy for COc1ccc(Oc2nc(-c3cncc(C#N)c3)ncc2NCc2ncc[nH]2)cc1 [Cpd 284] please. 0.609

Reported GTPγS δ-opioid receptor Rel Efficacy, compound COc1ccc(Oc2nc(-c3cnc(-c4cnc(Cl)c(C)c4)c(C)c3)ncc2NC[C@@H]2CCCN2)cc1 [Cpd 264] : ____ 1.036

Can you share its GTPγS δ-opioid receptor Rel Efficacy? I mean this compound: COc1ccc(Oc2nc(-c3cncc(OC)c3)ncc2NC[C@@H]2C[C@@H](O)CN2)cc1 [Cpd 273] 1.001

GTPγS δ-opioid receptor Rel Efficacy for COc1ccc(Oc2nc(-c3cncc(C#N)c3)ncc2NC[C@@H]2CCCN2)cc1C [Cpd 204] ? 0.982

Query: GTPγS δ-opioid receptor Rel Efficacy; subject: COc1ccc(Oc2nc(-c3cccnc3)ncc2N2CCN(C)CC2)cc1 [Cpd 353] 0.651

# input compound: Fc1cncc(-c2ncc(NC[C@@H]3CCCN3)c(Oc3ccc(OC(F)F)cc3)n2)c1 [Cpd 112] ; wanted: its GTPγS δ-opioid receptor Rel Efficacy 1.082

Reported GTPγS δ-opioid receptor Rel Efficacy, compound COc1ccc(Oc2nc(-c3cncc(OC)c3)ncc2N2CCNCC2)cc1 [Cpd 342] : ____ 1.020

Given the compound CC(=O)Oc1cccc(Oc2nc(-c3cncc(C)c3)ncc2NC[C@@H]2CCCN2)c1 [Cpd 251] , what is its reported GTPγS δ-opioid receptor Rel Efficacy? 1.145

I would be grateful if you could share the reported GTPγS δ-opioid receptor Rel Efficacy for CC(=O)Nc1ccc(Oc2nc(-c3cncc(F)c3)ncc2NC[C@@H]2CCCN2)cc1 [Cpd 212] . 0.994

Data request, read-out GTPγS δ-opioid receptor Rel Efficacy, for COc1ccc(Oc2nc(-c3cnc(Cl)c(C)c3)ncc2NC[C@@H]2CCCN2)cc1 [Cpd 266] 1.041

# get_value(readout='GTPγS δ-opioid receptor Rel Efficacy', item= COc1ccc(Oc2nc(-c3cncc(C#N)c3)ncc2N2CCC[C@H](N)C2)cc1 [Cpd 329] ) 1.006

FYI, the data here is from patent US8513271B2.
